- method: Cell viability of Wistar rat peritoneal leukocytes by trypan blue exclusion method
- Type: cell-based, Leukocyte
- settings: read-out: Activity
quantity: viability (%)
Field format: number, assumed %, no unit text.

Please fill in: viability reported for Cc1cc(-c2ccc(/N=N/c3c(S(=O)(=O)O)cc4cc(S(=O)(=O)O)cc(N)c4c3O)c(C)c2)ccc1/N=N/c1c(S(=O)(=O)O)cc2cc(S(=O)(=O)O)cc(N)c2c1O = 95

====

inhibition by entry:
- Species: Rattus norvegicus
- method: Inhibition of cyclooxygenase in Wistar rat peritoneal leukocytes at 50 ug/mL
- Format: cell-based
Field format: number, assumed %, no unit text.

Here are 6 compounds together with their reported answers.
| compound | experimental-value |
| --- | --- |
| C[C@H]1O[C@H](O[C@@H]2[C@@H](O)[C@H](OCCc3ccc(O)c(O)c3)O[C@H](CO[C@H]3O[C@@H](CO)[C@H](O)[C@@H](O)[C@@H]3O)[C@H]2OC(=O)/C=C/c2ccc(O)c(O)c2)[C@@H](O)[C@@H](O)[C@@H]1O | 0 |
| C=C1CC/C=C(\C)C(=O)[C@H](O)[C@@H]2[C@@H]1CC2(C)C | 47.9 |
| C[C@H]1O[C@H](O[C@@H]2[C@@H](O)[C@H](OCCc3ccc(O)c(O)c3)O[C@H](CO[C@H]3OCC(O)(CO)[C@@H]3O)[C@H]2OC(=O)/C=C/c2ccc(O)c(O)c2)[C@@H](O)[C@@H](O)[C@@H]1O (some centres not stated) | 0 |
| O=C(O)c1ccc(OCCn2ccnc2)cc1 | 89.6 |
| CCC(OC)(c1cccc(OCc2ccc3ccccc3c2)c1)c1nccs1 (configuration not stated) | 0 |
| CCn1c(=O)ccc2cc(COc3cc(F)cc(C4(OC)CCOCC4)c3)ccc21 | 47.8 |

Next up:
Please fill in: inhibition reported for C=C1CC/C=C(\C)C(=O)[C@H](OC(C)=O)[C@@H]2[C@@H]1CC2(C)C = 89.3
